Reference source: patent US20140363441A1

- target-entity: M2 protein of influenza A/Hong Kong/483/1997 (H5N1), expressed on cells (influenza A virus H5N1 A/Hong Kong/483/97)
Known MFI of a selection of binders
Express your answer in MFI, writing the number without its unit.

binder | unit-name | MFI
3244_H04 (antibody, V domains shown) VH: EVQLVESGGGLVQPGGSLRLSCTASGLSVSSTYMNWVRQAPGKGLEWVSVFYSETRTYYADSVKGRFTVSRHNSNNTLYLQMNSLRAEDTAVYYCARVQRLSYGMDVWGQGTTVTVSS VL: DIQMTQSPSSLSASVGDRVTITCRASQSISTYLNWYQKRPGKAPKLLVYGASSLQSGVPSRFSGSGSGTDFTLTIASLQPEDSAVYYCQQTYSIPLFGQGTRLEIK | MFI | 963
3252_C13 (antibody, V domains shown) VH: QVQLQESGPGLVKPSETLSLTCTVSGASISSDYWSWIRLPPGKGLEWIGYIYNRGSTKYTPSLKSRVTISLDTAENQFSLRLRSVTAADTAIYYCARHVGGHTYGIDYWGQGTLVTVSS VL: DIQMTQSPSSLSASVGDRVTITCRASQSISNYLNWYQHKPGEAPKLLNYAASSLQSGVPSRFSASGSGTDFTLTISSLQPEDFATYYCQQSYNTPITFGQGTRLEIK | MFI | 449
3420_I23 (antibody, V domains shown) VH: QVQLQESGPGLVKPSETLSVTCKVSGDSISSYSWSWIRQPPGKGLEWVGYLYYSGSTKYNPSLKSRTTISVDTSTNQLSLKLSFVTAADTAVYFCARTGSESTTGYGMDVWGQGTTVTVSS VL: DIQMTQSPSSLSASVGDRVTITCRASQSISTYLNWYQQKPGKAPKLLIYAASSLHSGVPSRFSGSGSGTDFALTISSLQPEDFATYYCQQSYSPPITFGQGTRLEIK | MFI | 112
3244_I10 (antibody, V domains shown) VH: QVQLQESGPGLLKPSDTLALTCTVSGGSITSDYWSWIRQPPGRGLDWIGFFYNGGSTKYNPSLKSRVTISADTSKNQLSLKLTSVTAADTGVYYCARHDAKFSGSYYVASWGQGTRVTVSS VL: DIQMTQSPSSLSASVGDRVTISCRASQSISTYLNWYQQQPGKAPKVLIFGATNLQSGVPSRFSGSGSGTDFTLTISSLQPEDFATYYCQQSYNTPLIFGQGTKLEIK | MFI | 434
3253_P10 (antibody, V domains shown) VH: QVQLQESGPGLLKPSDTLALTCTVSGGSITSDYWSWIRQPPGRGLDWIGFFYNGGSTKYNPSLKSRVTISADTSKNQLSLKLTSVTAADTGVYYCARHDAKFSGSYYVASWGQGTRVTVSS VL: DIQMTQSPSSLSASVGDRVTISCRASQSISTYLNWYQQQPGKAPKVLISGATDLQSGVPSRFSGSGSGTDFTLTISSLQPEDFATYYCQQSYNTPLIFGQGTKLEIK | MFI | 43

Exercise: Please look up its MFI: 3242_P05 (antibody, V domains shown) VH: DMQLVESGGGLVPPGGSLRLSCAASGFSVSDNYINWVRQAPGKGLDWVSVFYSADRTSYADSVKGRFTVSSHDSKNTVYLQMNSLRAEDTAVYYCARVQKSYYGMDVWGQGTTVTVSS VL: GIQMTQSPSSLSASVGDRVTITCRASQSISRYLNWYLQKPGKAPKLLISGASSLQSGVPSRFSGTGSGTEFTLTISSLQPEDFATYYCQQTFSIPLFGQGTKVEIK
Solution: 596

Exercise: Please look up its MFI: 3136_G05 (antibody, V domains shown) VH: QVQLQESGPGLVKPSETLSLTCSVSGGSISSDFWSWIRQPPGKGLEWIGYVYNRGSTKYSPSLKSRVTISADMSKNQFSLNMSSVTAADTAVYYCAKNGRSSTSWGIDVWGKGTTVTVSS VL: DIQMTQSPSSLSASVGDRLTITCRASQSISTYLHWYQQKPGKAPKLLIYAASSLQSGVPSRFSGSRSGTDFTLTISSLQPDDFATYYCQQSYSPPLTFGPGTKVDMK
Solution: 109

Exercise: Please look up its MFI: 3245_O19 (antibody, V domains shown) VH: EVQLVESGGGLVQPGGSLRLSCTASGLSVSSTYMNWVRQAPGKGLEWVSVFYSETRTYYADSVKGRFTVSRHNSNNTLYLQMNSLRVEDTAVYYCARVQRLSYGMDVWGQGTTVTVSS VL: DIQMTQSPSSLSASVGDRVTITCRASQSISTYLNWYQKRPGKAPKLLVYGASTLQSGVPSRFSGSGSGTDFTLTIASLQPEDSATYYCQQTYSIPLFGQGTRLEIK
Solution: 919

Exercise: Please look up its MFI: 3259_J21 (antibody, V domains shown) VH: QVQLQESGPRVVRPSETLSLTCTVSGGSISSYNWIWIRQPPGKGLEWIGHIYDYGRTFYNSSLQSRPTISVDASKNQLSLRLTSVTASDTAVYYCARPLGILHYYAMDLWGQGTTVTVSS VL: DIQMTQSPLSVSVSVGDRVTIACRASQSIDKFLNWYQQKPGKAPKLLIYGASNLHSGAPSRFSASGSGTDFTLTITNIQTEDFATYLCQQSFSVPAFGGGTKVEIK
Solution: 1670

Exercise: Please look up its MFI: 3241_G23 (antibody, V domains shown) VH: QVQLQQSGPGLVKPSQTLSLTCTVSGGPVSGGGYSWNWIRQRPGQGLEWVGFMFHSGSPRYNPTLKSRITISVDTSKNLVSLKLSSVTAADTAVYFCARVGQMDKYYAMDVWGQGTTVTVSS VL: DIQMTQSPSSLSSSVGDRVTITCRASQSIGAYVNWYQQKAGKAPQVLIFGASNLQSGVPSRFSGSGSGTDFTLTISSLQPEDFATYFCQQTYSTPITFGQGTRLEIK
Solution: 1700
